assayInfo: E. coli acrAB mutant growth effects, primary screen, E. coli filamentation inducers, strain DRC39, OD650, 24 h (AID 1178);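 note: growth measured as culture turbidity by optical density at 650 nm; test concentration not given here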
experimentalConditions: higher = more signal, called active from +8 up or from −8 down
Recorded measurements of z-score, one per entry
reportedProperty: z-score

# structureNotation, valueReported
records = [
    ("C=C(COC)/C(=C/C[C@@H](OC(C)=O)c1ccc(CO)o1)c1cc(C(=O)OC)ccc1OC", 0.65),
    ("COc1ccc([Si](C)(C)[C@@H]2[C@@H](CCn3cc([C@H](O)c4ccccc4)nn3)O[C@]3(C(=O)N(Cc4cccc(N5C(=O)c6cccc7cccc5c67)c4)c4ccccc43)[C@H]2C)cc1", -0.494),
    ("COC(=O)[C@@]1(Cc2ccccc2)[C@H]2c3cc(C(=O)N(C)C)n(CCn4cc([N+](=O)[O-])nc4C)c3C[C@H]2CN1C(=O)c1ccccc1", -0.211),
]

###

assayInfo: CREB reporter modulators under forskolin, primary screen, cell-based, PC12, CRE-LacZ reporter, forskolin-stimulated (AID 1146);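 note: PC12 cells with 6xCRE LacZ reporter stimulated by forskolin 10 µM; beta-galactosidase reporter signal reflecting CREB driven transcription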
experimentalConditions: luminescence, 4.5 h, higher = more signal, called active from +8 up or from −8 down
Decision: z-score >= 0.02 yields yes, all other cases yield no.

# molecule, qualitativeLabel
records = [
    ("NCCCCCNC(=O)[C@H]1C[C@H]2C(=O)N[C@@H](Cc3ccccc3)C(=O)N2[C@H]1c1ccc(O)cc1", "no"),
    ("C=CCN1C(=O)[C@@]2(O[C@@H](CCO)[C@H]([Si](C)(C)c3ccc(OC)cc3)[C@H]2C)c2cc(N3CCOC3=O)ccc21", "no"),
    ("Cc1c(NC(=O)/C(C#N)=C/c2ccccc2Cl)c(=O)n(-c2ccccc2)n1C", "no"),
    ("COc1ccc([Si](C)(C)[C@H]2[C@H](CCO)O[C@@]3(C(=O)N(Cc4ccc(N5C(=O)c6ccccc6Oc6ccccc65)cc4)c4ccccc43)[C@@H]2C)cc1", "no"),
    ("C=C(C(=O)CC[C@H](OC(=O)c1ccccc1-c1ccccc1C(=O)O)c1ccccc1OCCO)C(C)C", "yes"),
    ("CCOC(=O)C1=CCC(c2ccco2)N(S(=O)(=O)c2ccc(C)cc2)C1 (stereo not drawn)", "yes"),
    ("COCCCNC(=O)[C@@]1(c2ccc([N+](=O)[O-])cc2)CC(=O)N(C(C)C)[C@@H]1c1ccc(CO)cc1", "yes"),
    ("CCCCCCCCCCC(O)C1C=CC2C(=O)N(c3ccccc3)C(=O)C2N1Nc1ccccc1F (stereo not drawn)", "yes"),
]

###

compounds and their reported composite z-score
Test system: Plasmodium falciparum Sir2 (PF13_0152, Sir2A)
assayInfo: pfSir2 binders on small-molecule microarrays, primary screen, biochemical, small-molecule microarray, 635 nm fluorescence (AID 1098);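 note: score merges spot fluorescence intensity with its signal-to-noise ratio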
experimentalConditions: small-molecule microarray binding, fluorescence 635 nm; higher = more signal
reportedProperty: composite z-score

# compound, reportedProperty, valueReported
records = [
    ("CN1C(=O)[C@@H]2[C@@H](CC(COc3ccccc3)=C([C@H](O)CCc3ccccc3)[C@@H]2CO)C1=O", "composite z-score", -0.194),
    ("CO[C@H]1O[C@H](CO)[C@@H](OC(=O)c2ccc(Br)cc2)[C@@H]2OC(=O)[C@H](Cc3ccccc3)C/C=C/C[C@@H](Cc3ccccc3)C(=O)O[C@@H]12", "composite z-score", 1.14),
    ("CCOC(=O)C1=C[C@@H](C(C)(C)C)N(S(=O)(=O)c2ccc(C)cc2)[C@H]1c1cccc(Cl)c1", "composite z-score", 0.758),
    ("C=C(C(=O)CC[C@H](OC(=O)c1ccccc1-c1ccccc1C(=O)O)c1ccccc1OCCO)C(C)C", "composite z-score", 1.01),
    ("Cc1c(NC(=O)/C(C#N)=C/c2ccccc2Cl)c(=O)n(-c2ccccc2)n1C", "composite z-score", 0.633),
    ("CN1C(=O)[C@@]2(Cc3ccccc3)N=C(c3ccc(OCCCO)cc3)O[C@H]2c2ccccc21", "composite z-score", 0.318),
    ("CC(C)[Si]1(C(C)C)OCc2cc(-c3ccc(-c4ccc(Cl)c(Cl)c4)o3)nc(CCc3ccccc3)c21", "composite z-score", 0.508),
    ("CC(C)C[C@@H]1NC(=O)[C@H]2C[C@@H](C(=O)NCCCCCN)[C@@H](c3cccc(OCCO)c3)N2C1=O", "composite z-score", 0.481),
    ("COc1ccc(C(=O)Nc2cccc(CN3C(=O)[C@]4(O[C@H](CCn5cc([C@H](O)c6ccccc6)nn5)[C@@H]([Si](C)(C)c5ccc(OC)cc5)[C@@H]4C)c4ccccc43)c2)cc1", "composite z-score", 0.758),
    ("C=CC1c2cc(O)c(OC)cc2CCN1Cc1ccc([N+](=O)[O-])o1 (stereo unspecified)", "composite z-score", 1.19),
    ("COC(=O)[C@@]1(Cc2ccc(F)cc2)[C@H]2c3cc(C(=O)N4CCCC4)n(CC4CC4)c3C[C@H]2CN1C(=O)c1ccccc1", "composite z-score", 1.4),
    ("Cc1ccccc1C(O)C1C=CC2C(=O)N(c3ccccc3)C(=O)C2N1Nc1ccc([N+](=O)[O-])cc1 (stereo unspecified)", "composite z-score", 1.3),
    ("C=C(C(=O)CC[C@@H](OC(=O)c1ccccc1-c1ccccc1C(=O)O)c1ccccc1OCCO)C(C)C", "composite z-score", 1.07),
    ("CC(C)C[C@@H]1NC(=O)[C@@H]2C[C@H](C(=O)NCCCCCC[N+](C)(C)C)[C@H](c3cccc(OCCO)c3)N2C1=O", "composite z-score", 1.78),
    ("CC(C)C(=C=CC[C@@H](O)c1cccc(OCCO)c1)C[C@@H](O)c1ccccn1", "composite z-score", 0.862),
    ("Cc1ccccc1C(O)C1C=CC2C(=O)NC(=O)C2N1Nc1ccc(Cl)cc1Cl (stereo unspecified)", "composite z-score", 1.21),
]
